- System: NCI-H460
- assay name: relative viability (nuclei count vs DMSO), 5 days (fraction); higher = more cells survive
- measurement conditions: first compound 1.265 µM
readout kind: relative viability

>>> observed("O=C(O)c1ccc(-c2c[nH]c3ncc(-c4ccccc4)cc23)cc1C1CCCC1 + CS(=O)(=O)CCNCc1ccc(-c2ccc3ncnc(Nc4ccc(OCc5cccc(F)c5)c(Cl)c4)c3c2)o1 [Lapatinib] (partner 2 µM)")
0.782
>>> observed("O=C(O)c1ccc(-c2c[nH]c3ncc(-c4ccccc4)cc23)cc1C1CCCC1 + NC(=O)Nc1cc(-c2cccc(F)c2)sc1C(=O)N[C@H]1CCCNC1 [AZD7762] (partner 0.2 µM)")
0.794
>>> observed("O=C(O)c1ccc(-c2c[nH]c3ncc(-c4ccccc4)cc23)cc1C1CCCC1 + CC(C)C[C@H](NC(=O)[C@H](Cc1ccccc1)NC(=O)c1cnccn1)B(O)O [Bortezomib] (partner 0.002 µM)")
0.939

* * *

- Tested on: NCI-H1651
- assay name: relative viability (nuclei count vs DMSO), 5 days (fraction); higher = more cells survive
- measurement conditions: first compound 0.1581 µM
// returns no (0) unless relative viability is strictly below 0.6, in which case yes (1)

>>> cat("CC1(C)CCC(c2ccc(Cl)cc2)=C(CN2CCN(c3ccc(C(=O)NS(=O)(=O)c4ccc(N[C@H](CCN5CCOCC5)CSc5ccccc5)c(S(=O)(=O)C(F)(F)F)c4)cc3)CC2)C1 [Navitoclax] + N=C(N)NC(=N)NCCc1ccccc1 [Phenformin] (partner 250 µM)")
"yes (1)"
>>> cat("CC1(C)CCC(c2ccc(Cl)cc2)=C(CN2CCN(c3ccc(C(=O)NS(=O)(=O)c4ccc(N[C@H](CCN5CCOCC5)CSc5ccccc5)c(S(=O)(=O)C(F)(F)F)c4)cc3)CC2)C1 [Navitoclax] + C[C@]1(O)C[C@@H](c2nc(-c3ccc4ccc(-c5ccccc5)nc4c3)c3c(N)nccn32)C1 [Linsitinib] (partner 1 µM)")
"no (0)"
>>> cat("CC1(C)CCC(c2ccc(Cl)cc2)=C(CN2CCN(c3ccc(C(=O)NS(=O)(=O)c4ccc(N[C@H](CCN5CCOCC5)CSc5ccccc5)c(S(=O)(=O)C(F)(F)F)c4)cc3)CC2)C1 [Navitoclax] + CS(=O)(=O)CCNCc1ccc(-c2ccc3ncnc(Nc4ccc(OCc5cccc(F)c5)c(Cl)c4)c3c2)o1 [Lapatinib] (partner 2 µM)")
"no (0)"
>>> cat("CC1(C)CCC(c2ccc(Cl)cc2)=C(CN2CCN(c3ccc(C(=O)NS(=O)(=O)c4ccc(N[C@H](CCN5CCOCC5)CSc5ccccc5)c(S(=O)(=O)C(F)(F)F)c4)cc3)CC2)C1 [Navitoclax] + O=C(c1cc(Cc2n[nH]c(=O)c3ccccc23)ccc1F)N1CCN(C(=O)C2CC2)CC1 [Olaparib] (partner 8 µM)")
"yes (1)"
>>> cat("CC1(C)CCC(c2ccc(Cl)cc2)=C(CN2CCN(c3ccc(C(=O)NS(=O)(=O)c4ccc(N[C@H](CCN5CCOCC5)CSc5ccccc5)c(S(=O)(=O)C(F)(F)F)c4)cc3)CC2)C1 [Navitoclax] + Nc1nc2[nH]cc(CCc3ccc(C(=O)N[C@@H](CCC(=O)O)C(=O)O)cc3)c2c(=O)[nH]1 [Pemetrexed] (partner 0.2 µM)")
"no (0)"

* * *

- Test system: H3255
- assay name: relative viability (nuclei count vs DMSO), 5 days (fraction); higher = more cells survive
- measurement conditions: first compound 0.1265 µM
readout kind: relative viability

>>> observed("O=C(O)c1ccc(-c2c[nH]c3ncc(-c4ccccc4)cc23)cc1C1CCCC1 + COc1cc2c(Oc3ccc(NC(=O)C4(C(=O)Nc5ccc(F)cc5)CC4)cc3F)ccnc2cc1OCCCN1CCOCC1 [Foretinib] (partner 0.25 µM)")
1.08
>>> observed("O=C(O)c1ccc(-c2c[nH]c3ncc(-c4ccccc4)cc23)cc1C1CCCC1 + CS(=O)(=O)N1CCN(Cc2cc3nc(-c4cccc5[nH]ncc45)nc(N4CCOCC4)c3s2)CC1 [Pictilisib] (partner 1 µM)")
0.529
>>> observed("O=C(O)c1ccc(-c2c[nH]c3ncc(-c4ccccc4)cc23)cc1C1CCCC1 + O=C(CCCCCCC(=O)Nc1ccccc1)NO [Vorinostat] (partner 1 µM)")
0.795
>>> observed("O=C(O)c1ccc(-c2c[nH]c3ncc(-c4ccccc4)cc23)cc1C1CCCC1 + Cc1nc(Nc2ncc(C(=O)Nc3c(C)cccc3Cl)s2)cc(N2CCN(CCO)CC2)n1 [Dasatinib] (partner 0.075 µM)")
0.6
>>> observed("O=C(O)c1ccc(-c2c[nH]c3ncc(-c4ccccc4)cc23)cc1C1CCCC1 + Cc1nc(NC(=O)N2CCC[C@H]2C(N)=O)sc1-c1ccnc(C(C)(C)C(F)(F)F)c1 [Alpelisib] (partner 2 µM)")
0.776

* * *

- Test system: SW 900
- assay name: relative viability (nuclei count vs DMSO), 5 days (fraction); higher = more cells survive
- measurement conditions: first compound 0.01581 µM
readout kind: relative viability

>>> observed("CC1(C)CCC(c2ccc(Cl)cc2)=C(CN2CCN(c3ccc(C(=O)NS(=O)(=O)c4ccc(N[C@H](CCN5CCOCC5)CSc5ccccc5)c(S(=O)(=O)C(F)(F)F)c4)cc3)CC2)C1 [Navitoclax] + COc1cccc2cc(-c3nc([C@H]4CC[C@H](C(=O)O)CC4)n4ncnc(N)c34)[nH]c12 [OSI-027] (partner 0.5 µM)")
0.681
>>> observed("CC1(C)CCC(c2ccc(Cl)cc2)=C(CN2CCN(c3ccc(C(=O)NS(=O)(=O)c4ccc(N[C@H](CCN5CCOCC5)CSc5ccccc5)c(S(=O)(=O)C(F)(F)F)c4)cc3)CC2)C1 [Navitoclax] + CC(=O)Nc1cccc(-n2c(=O)n(C3CC3)c(=O)c3c(Nc4ccc(I)cc4F)n(C)c(=O)c(C)c32)c1 [Trametinib] (partner 0.02 µM)")
0.981
>>> observed("CC1(C)CCC(c2ccc(Cl)cc2)=C(CN2CCN(c3ccc(C(=O)NS(=O)(=O)c4ccc(N[C@H](CCN5CCOCC5)CSc5ccccc5)c(S(=O)(=O)C(F)(F)F)c4)cc3)CC2)C1 [Navitoclax] + O=C(CCCCCCC(=O)Nc1ccccc1)NO [Vorinostat] (partner 1 µM)")
0.573

* * *

- Test system: LC-2-ad
- assay name: relative viability (nuclei count vs DMSO), 5 days (fraction); higher = more cells survive
- measurement conditions: first compound 8 µM
readout kind: relative viability

>>> observed("C=C1C(=O)O[C@@H](CCCCCCCC)[C@@H]1C(=O)O [C-75] + NC(=O)Nc1cc(-c2cccc(F)c2)sc1C(=O)N[C@H]1CCCNC1 [AZD7762] (partner 0.2 µM)")
0.853
>>> observed("C=C1C(=O)O[C@@H](CCCCCCCC)[C@@H]1C(=O)O [C-75] + CC1(C)CCC(c2ccc(Cl)cc2)=C(CN2CCN(c3ccc(C(=O)NS(=O)(=O)c4ccc(N[C@H](CCN5CCOCC5)CSc5ccccc5)c(S(=O)(=O)C(F)(F)F)c4)cc3)CC2)C1 [Navitoclax] (partner 0.5 µM)")
0.474
>>> observed("C=C1C(=O)O[C@@H](CCCCCCCC)[C@@H]1C(=O)O [C-75] + CS(=O)(=O)CCNCc1ccc(-c2ccc3ncnc(Nc4ccc(OCc5cccc(F)c5)c(Cl)c4)c3c2)o1 [Lapatinib] (partner 2 µM)")
1.01
>>> observed("C=C1C(=O)O[C@@H](CCCCCCCC)[C@@H]1C(=O)O [C-75] + CC(=O)Nc1cccc(-n2c(=O)n(C3CC3)c(=O)c3c(Nc4ccc(I)cc4F)n(C)c(=O)c(C)c32)c1 [Trametinib] (partner 0.02 µM)")
0.926
>>> observed("C=C1C(=O)O[C@@H](CCCCCCCC)[C@@H]1C(=O)O [C-75] + N=C(N)NC(=N)NCCc1ccccc1 [Phenformin] (partner 250 µM)")
0.54

* * *

- Tested on: NCI-H647
- assay name: relative viability (nuclei count vs DMSO), 5 days (fraction); higher = more cells survive
- measurement conditions: first compound 0.5 µM
As shown below, each of these compounds has a reported relative viability value.
readout kind: relative viability

>>> observed("CC1(C)CCC(c2ccc(Cl)cc2)=C(CN2CCN(c3ccc(C(=O)NS(=O)(=O)c4ccc(N[C@H](CCN5CCOCC5)CSc5ccccc5)c(S(=O)(=O)C(F)(F)F)c4)cc3)CC2)C1 [Navitoclax] + C[C@@H](Oc1cc(-c2cnn(C3CCNCC3)c2)cnc1N)c1c(Cl)ccc(F)c1Cl [Crizotinib] (partner 1 µM)")
0.896
>>> observed("CC1(C)CCC(c2ccc(Cl)cc2)=C(CN2CCN(c3ccc(C(=O)NS(=O)(=O)c4ccc(N[C@H](CCN5CCOCC5)CSc5ccccc5)c(S(=O)(=O)C(F)(F)F)c4)cc3)CC2)C1 [Navitoclax] + NC(=O)Nc1cc(-c2cccc(F)c2)sc1C(=O)N[C@H]1CCCNC1 [AZD7762] (partner 0.2 µM)")
0.438
>>> observed("CC1(C)CCC(c2ccc(Cl)cc2)=C(CN2CCN(c3ccc(C(=O)NS(=O)(=O)c4ccc(N[C@H](CCN5CCOCC5)CSc5ccccc5)c(S(=O)(=O)C(F)(F)F)c4)cc3)CC2)C1 [Navitoclax] + Cc1cc(Nc2cc(N3CCN(C)CC3)nc(Sc3ccc(NC(=O)C4CC4)cc3)n2)n[nH]1 [Tozasertib] (partner 0.1 µM)")
0.251
>>> observed("CC1(C)CCC(c2ccc(Cl)cc2)=C(CN2CCN(c3ccc(C(=O)NS(=O)(=O)c4ccc(N[C@H](CCN5CCOCC5)CSc5ccccc5)c(S(=O)(=O)C(F)(F)F)c4)cc3)CC2)C1 [Navitoclax] + Cc1nc(Nc2ncc(C(=O)Nc3c(C)cccc3Cl)s2)cc(N2CCN(CCO)CC2)n1 [Dasatinib] (partner 0.075 µM)")
0.315

All values here come from the supplement of paper PMC10307832.
